# target-entity: Protein artemis (Homo sapiens) (UniProt Q96SD1)
# Sequence (Q96SD1 whole entry, looked up): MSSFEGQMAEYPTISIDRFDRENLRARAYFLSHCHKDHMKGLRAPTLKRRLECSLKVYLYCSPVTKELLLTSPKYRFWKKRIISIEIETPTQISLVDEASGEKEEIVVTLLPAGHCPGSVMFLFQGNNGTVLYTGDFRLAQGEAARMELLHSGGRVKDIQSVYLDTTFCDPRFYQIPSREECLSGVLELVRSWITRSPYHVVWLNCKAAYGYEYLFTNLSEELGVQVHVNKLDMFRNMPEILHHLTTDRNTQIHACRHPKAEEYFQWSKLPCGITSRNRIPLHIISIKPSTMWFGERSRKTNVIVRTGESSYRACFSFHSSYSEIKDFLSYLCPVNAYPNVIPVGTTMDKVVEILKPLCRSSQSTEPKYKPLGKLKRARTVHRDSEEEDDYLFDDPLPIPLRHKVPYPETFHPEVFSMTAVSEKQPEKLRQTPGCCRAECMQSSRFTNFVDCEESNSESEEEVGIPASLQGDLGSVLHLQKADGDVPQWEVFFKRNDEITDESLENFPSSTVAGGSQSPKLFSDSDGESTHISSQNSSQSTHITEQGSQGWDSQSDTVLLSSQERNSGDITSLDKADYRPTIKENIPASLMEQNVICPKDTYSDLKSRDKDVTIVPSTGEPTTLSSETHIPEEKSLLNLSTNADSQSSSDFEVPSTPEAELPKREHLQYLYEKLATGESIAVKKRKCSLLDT
# method: Artemis endonuclease inhibitor potency, dose response, biochemical, fluorescence intensity (AID 720701)
# condition-label: Recombinant Artemis endonuclease
The source made the active and inactive calls. The rule behind the calls is not given here.
API: response.call in active, inactive

1. O=c1c2ccccc2nc(N/N=C/c2c(O)ccc3ccccc23)n1O	active
2. O=C(CCCSc1ccccc1)Nc1nc(-c2ccccn2)cs1	active
3. COc1cccc(/C=N/Nc2nc(Nc3ccccc3)nc(-n3nc(C)cc3C)n2)c1O	active

Name the outcome recorded for CCCCCCCCC/C(=N\O)c1ccccn1 in the assay.
active

Which outcome was entered for the molecule Cc1cc(C)n(-c2nc(Nc3ccccc3C(F)(F)F)nc(-n3nc(C)cc3C)n2)n1 in this test?
active

Called result for CN1/C(=N\O)c2cccc3cccc1c23
inactive

Tell me the assay call for CCN(CC)c1ccc(/C=N/Nc2nc3ccccc3[nH]2)c(O)c1 please.
active

I'd appreciate the recorded outcome for COc1ccc(Nc2nc(NCc3ccco3)nc(N/N=C/c3ccccc3)n2)cc1 from this test.
active

Could you kindly confirm the outcome this assay logged for COc1ccc(O)c(/C=N/Nc2nc(Nc3ccccc3)nc(-n3nc(C)cc3C)n2)c1 ?
active

Check the results log: what was the call for COc1ccc(C(=O)c2c(C(F)(F)F)oc3c2C(=O)c2ccccc2C3=O)cc1OC ?
inactive

Which result was noted for this molecule in the test: C/C(=N\O)c1ccccc1C(=O)O
active

* * *

# target-entity: Protein artemis (Homo sapiens)
# method: Artemis endonuclease inhibitor potency, dose response, biochemical, fluorescence intensity (AID 720701)
# condition-label: Recombinant Artemis endonuclease
Calls of active or inactive are those of the source. No rule for the calls is given here.
Give your call using only these classes: True for active, False for inactive

1. COc1cccc(N=Nc2c(N)[nH]n3c(=O)cc(-c4ccccc4)nc23)c1	True
2. Oc1ccc2ccccc2c1C=NC12CN3CCN(CN(C3)C1)C2	True
3. Cc1nnc(-c2ccccc2)c(=O)n1/N=C/c1c(O)ccc2ccccc12	False
4. Nc1[nH]n2c(=O)c3c(nc2c1N=Nc1ccc(Cl)cc1)CCCC3	True

Could you now consider this next compound?
Which outcome was assigned to N#CC1=C(N)Oc2n[nH]c(-c3cccs3)c2C1c1ccoc1 (stereo not given) in this test?
False

Values compiled from PubChem BioAssay AID720701.
